# Tested on: TNFα-FL/Gaussia Luciferase
# test-details: Dox Induced TNFα-FL-Gluc Assay
# Format: cell-based
# experimental-setup: 24 hr Dox induction; 293FRT/TO cells; read-out: 24 hr Dox Inducible TNFaFLGluc 293FRT/TO: Mean IC50
assay-readout: IC50 (µM)
Only the number, expressed in µM, is required.

Some entries whose results are on file:
{"compound": "CC(=O)N1CCC(Oc2ccc(N3CCC[C@@H]3c3csc(NC(=O)c4cccn4Cc4ccnc(F)c4)n3)cc2)C1 (some centres unmarked)", "assay-readout": "IC50", "readout-number": 0.171}
{"compound": "O=C(Nc1nc([C@H]2CCCN2c2ccc(OC3CCNC3)cc2)cs1)c1cccn1Cc1ccnc(F)c1 (some centres unmarked)", "assay-readout": "IC50", "readout-number": 11.4}
{"compound": "CN(C)c1ccc(N2CCC[C@@H]2c2csc(NC(=O)c3cccn3Cc3ccncc3)n2)cc1", "assay-readout": "IC50", "readout-number": 0.127}
{"compound": "CC(=O)Nc1ccc(N2CCC[C@@H]2c2csc(NC(=O)c3cccn3Cc3ccnc(F)c3)n2)cc1", "assay-readout": "IC50", "readout-number": 0.0441}
{"compound": "O=C(Nc1nc([C@H]2CCCN2c2ccc(C3(O)CCC3)cc2)cs1)c1cccn1Cc1ccnc(F)c1", "assay-readout": "IC50", "readout-number": 0.551}
{"compound": "CC(=O)Nc1ccc(N2CCC[C@@H]2c2csc(NC(=O)c3cccn3Cc3ccncc3)n2)cc1", "assay-readout": "IC50", "readout-number": 0.052}

input: IC50 lookup needed for Cc1ccc(/C=C/c2csc(NC(=O)c3cccn3Cc3ccncc3)n2)nc1F , thanks.
output: 4.14

input: Quick one: IC50 for Cc1cccc(/C=C/c2csc(NC(=O)c3cccn3Cc3ccnc(F)c3)n2)n1 ?
output: 13.9

input: Look up IC50 for this compound: O=C(Nc1nc([C@H]2CCCN2c2ccc(OC3CCN(C(=O)CF)CC3)cc2)cs1)c1cccn1Cc1ccnc(F)c1
output: 0.512

The measured values listed here are drawn from patent US20230286973A1.
